Item-by-item account of growth
- Tested on: MDA-MB-468 breast
- assay_procedure: NCI-60 one-dose screen, 48 h (100 = growth as untreated, 0 = no growth, -100 = all killed)
- study_conditions: 10 µM unless noted
This is part of a sample that, as a whole, favours compounds with a hit. Of some 83,000 tested, about 20% had one in any assay.
Write down the numeric answer in % and omit the unit.

Recorded result, CC(=O)c1cc(C(=O)c2ccccc2)n2c1ccc1ccccc12 , growth: 93.9

Recorded result, COc1cccc(-c2nc(Nc3ccc(S(N)(=O)=O)cc3)c3ccccc3n2)c1 , growth: 24

Recorded result, COc1c(F)ccc(C(=O)Nc2ccc3nc(NC(=O)C4CCCN(S(=O)(=O)c5cccc(Cl)c5)C4)sc3c2)c1F (centres undefined) , growth: 88.8

Recorded result, O=S(=O)(Nc1cccc(-n2cnc3cc(-c4ccc(O)cc4)ccc32)c1)C1CC1 , growth: 3.78
